# credit: ChEMBL document CHEMBL5604062

- system.under.test: Nonstructural protein 3 (Zika virus)
- assay.overview: Functional biochemical assay to identify treatments for viral infectious disease that targets Zika NS2B-NS3 protease. Utilizing a direct enzyme activity measurement method, reading the fluorescence intensity is used to characterize the relative potency of inhibitors as IC50.
- Design: species or system PRVABC59
pIC50: −log10 of the molar value.
reported.endpoint: pIC50

Worked examples, 5 molecules total:
{"columns": ["molecule", "result"],
 "data": [
  ["CC(C)n1cnc2cc(C(=O)Nc3ccc4c(c3)CNC4)ccc21", "< 4.60"],
  ["CC(C)N1CCc2nc(NC(=O)c3cc(Cl)cc(NC(=O)OCc4ccccc4)c3)sc2C1", "< 4.00"],
  ["CCn1c(=O)c(N2C[C@@H]3CCO[C@]3(COC)C2)nc2ccccc21", "< 4.00"],
  ["CN(C)[C@H](C(=O)Nc1cccc(CN)c1)c1cc(Cl)cc(Cl)c1", "< 4.00"],
  ["O=C(Nc1ccc2c(c1)CNC2)c1nc(C(F)(F)F)cs1", "< 4.60"]
]}

Query: GET pIC50 | system: Nonstructural protein 3 (Zika virus) | item: OC1CCN(Cc2c[nH]c3ccccc23)CC1
Result: < 4.00

----------
- system.under.test: Nonstructural protein 3 (Zika virus, UniProt A0A024AXB9)
- Sequence (A0A024AXB9 whole entry): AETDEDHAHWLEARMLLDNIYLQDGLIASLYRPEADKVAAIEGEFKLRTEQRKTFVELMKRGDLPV
- assay.overview: Functional biochemical assay to identify treatments for viral infectious disease that targets Zika NS2B-NS3 protease. Utilizing a direct enzyme activity measurement method, reading the fluorescence intensity is used to characterize the relative potency of inhibitors as IC50.
- Set-up: species or system PRVABC59
reported.endpoint: IC50

Worked examples, 2 compounds total:
{"columns": ["molecule", "IC50"],
 "data": [
  ["CN1CCc2nc(NC(=O)c3cc(Cl)cc(NC(=O)OCc4ccccc4)c3)sc2C1", "> 99.5 µM"],
  ["CCn1cc(-c2cnccc2C)nc(N2CC[C@@H](CO)C2)c1=O", "> 99.5 µM"]
]}

Proceeding to the next compound to report its IC50.
Query: Dear colleague, please send me the reported IC50 for COc1c(C(N)=O)cc(Cl)cc1S(=O)(=O)Nc1cccc(-c2nnn[nH]2)c1 when you can.
Result: > 99.5 µM

----------
- system.under.test: UniProtKB A0A024AXB9
- assay.overview: Functional biochemical assay to identify treatments for viral infectious disease that targets Zika NS2B-NS3 protease. Utilizing a direct enzyme activity measurement method, reading the fluorescence intensity is used to characterize the relative potency of inhibitors as IC50.
- Parameters: species or system PRVABC59
pIC50: −log10 of the molar value.
# maps each entry to its pIC50

Worked examples, 3 compounds total:
{"columns": ["molecule", "pIC50"],
 "data": [
  ["c1ccc([C@@H]2C[C@H]3C[C@@H]2C[C@H]3NCc2n[nH]c3ccccc23)cc1", "< 4.00"],
  ["O=C(N[C@@H](C(=O)NCc1ccc(CN2CCCC2)cc1)c1ccc(OCc2ccccc2)cc1)OCc1ccccc1", "< 4.00"],
  ["NS(=O)(=O)c1cccc(N2CCN(Cc3c[nH]c4ccccc34)CC2)c1", "< 4.00"]
]}

Proceeding to the next compound to report its pIC50.
Query: Dear colleague, please send me the reported pIC50 for O=C(Nc1ccc2c[nH]nc2c1)c1cc(Cl)cc2[nH]ncc12 when you can.
Result: < 4.60

----------
- system.under.test: Nonstructural protein 3 (Zika virus, UniProt A0A024AXB9)
- assay.overview: Functional biochemical assay to identify treatments for viral infectious disease that targets Zika NS2B-NS3 protease. Utilizing a direct enzyme activity measurement method, reading the fluorescence intensity is used to characterize the relative potency of inhibitors as IC50. Synthetic construct has been made based on Zika virus (strain PRVABC59) by Centre for Medicines Discovery, University of Oxford, and the assay has been performed by Enamine biological services, Bienta Ltd.The protocol is publicly available: dx.doi.org/10.17504/protocols.io.36wgqn273gk5/v1
pIC50: −log10 of the molar value.
reported.endpoint: pIC50

Worked examples, 2 compounds total:
{"columns": ["molecule", "result"],
 "data": [
  ["Cc1c(C(=O)Nc2ccc3c(c2)C(=O)NC3)cc(C2CC2)n1C", "< 4.60"],
  ["CCc1cnc2c(NC(=O)c3cccc4c3CC(=O)N4)cnn2c1", "< 4.60"]
]}

Proceeding to the next compound to report its pIC50.
Query: Dear colleague, please send me the reported pIC50 for Cc1c(C(=O)Nc2ccc3c(c2)C[C@H](C(N)=O)O3)cc(C2CC2)n1C when you can.
Result: < 4.60

----------
- system.under.test: Nonstructural protein 3 (Zika virus, UniProt A0A024AXB9)
- assay.overview: Functional biochemical assay to identify treatments for viral infectious disease that targets Zika NS2B-NS3 protease. Utilizing a direct enzyme activity measurement method, reading the fluorescence intensity is used to characterize the relative potency of inhibitors as IC50.
- Design: species or system PRVABC59
reported.endpoint: IC50

{"columns": ["molecule", "IC50"],
 "data": [
  ["c1ccc(COc2cccc3[nH]cc(CN4CCC(c5cscn5)CC4)c23)cc1", "> 99.5 µM"],
  ["CC1(NS(=O)(=O)c2ccc(Cl)cc2C(=O)O)CCN(c2ccccc2)CC1", "> 99.5 µM"],
  ["O=C1Cc2c(cccc2C(=O)N[C@H]2C[C@H](Cn3ccnc3)C2)N1", "> 25 µM"],
  ["C[C@H](CC(=O)O)NC(=O)c1cc(Cl)cc(NC(=O)OCc2ccccc2)c1", "> 99.5 µM"],
  ["O=C1OCc2ccc(NC(=O)[C@H]3CCNC34CCCC4)cc21", "> 25 µM"]
]}

Proceeding to the next compound to report its IC50.
Query: Dear colleague, please send me the reported IC50 for Cc1cc(-c2ccc3[nH]c(C(=O)O)cc3c2)c2cc[nH]c(=O)c2c1 when you can.
Result: > 99.5 µM

----------
- system.under.test: UniProt A0A024AXB9
- assay.overview: Functional biochemical assay to identify treatments for viral infectious disease that targets Zika NS2B-NS3 protease. Utilizing a direct enzyme activity measurement method, reading the fluorescence intensity is used to characterize the relative potency of inhibitors as IC50.
- Parameters: species or system PRVABC59
pIC50: −log10 of the molar value.
reported.endpoint: pIC50

Worked examples, 8 compounds total:
{"columns": ["molecule", "system.under.test", "pIC50"],
 "data": [
  ["NCc1cccc(NC(=O)[C@H](NC(=O)OCc2ccccc2)c2cccc(-c3cncc(F)c3)c2)c1", "UniProt A0A024AXB9", "< 4.00"],
  ["CC(C)COc1ccc(Cl)cc1C(=O)Nc1ccc2c(c1)CNC2", "UniProt A0A024AXB9", 5.64],
  ["Cc1cc(C)n(-c2ccc(NS(=O)(=O)c3ccc(Cl)cc3C(=O)O)cc2)n1", "UniProt A0A024AXB9", "< 4.00"],
  ["CN(C)CCOc1cccc(CNC(=O)[C@@H](NC(=O)OCc2ccccc2)c2ccc(OCc3ccccc3)cc2)c1", "UniProt A0A024AXB9", "< 4.00"],
  ["NCc1cccnc1NS(=O)(=O)c1ccc(Oc2ccccc2Cl)cc1", "UniProt A0A024AXB9", "< 4.00"],
  ["C[C@@H](Cc1c[nH]c2ccccc12)N1CC[C@H](c2c[nH]c3ccccc23)C1", "UniProt A0A024AXB9", "< 4.00"],
  ["C[C@H]1C[C@H]1c1cc(C(=O)Nc2cc(-c3cccnc3)ccn2)no1", "UniProt A0A024AXB9", "< 4.60"],
  ["Cn1nccc1C1CCN(Cc2c[nH]c3ccccc23)CC1", "UniProt A0A024AXB9", "< 4.00"]
]}

Query: Dear colleague, please send me the reported pIC50 for CCn1c(=O)c(N2CCC[C@H]2C(=O)NC2CC2)nc2ccccc21 when you can.
Result: < 4.00

Query: Dear colleague, please send me the reported pIC50 for O=C(O)c1cc(Cl)cc(NS(=O)(=O)c2ccc(Oc3ccccc3Cl)cc2)c1 when you can.
Result: < 4.00

Query: Dear colleague, please send me the reported pIC50 for CCOC(=O)c1ncoc1CNC(=O)[C@H](Nc1ccc2c(c1)CNC2)c1cc(Cl)cc(C2CC2)c1 when you can.
Result: 6.53

Query: Dear colleague, please send me the reported pIC50 for CC(C)(C)c1[nH]c2ccc(F)cc2c1Cc1ccc(-c2nnn[nH]2)cc1 when you can.
Result: < 4.00

Query: Dear colleague, please send me the reported pIC50 for NC1(c2cccc(NC(=O)[C@@H](NC(=O)OCc3ccccc3)c3ccc(OCc4ccccc4)cc3)c2)CCC1 when you can.
Result: < 4.00

Query: Dear colleague, please send me the reported pIC50 for CN(C)CCOc1ccc(Cl)cc1C(=O)Nc1cccc(CN)c1 when you can.
Result: 4.59

----------
- system.under.test: Nonstructural protein 3 (Zika virus, UniProt A0A024AXB9)
- assay.overview: Functional biochemical assay to identify treatments for viral infectious disease that targets Zika NS2B-NS3 protease. Utilizing a direct enzyme activity measurement method, reading the fluorescence intensity is used to characterize the relative potency of inhibitors as IC50.
- Set-up: species or system PRVABC59
reported.endpoint: IC50 (µM)
Numbers only here, please. The scale is µM.

{"columns": ["molecule", "result.units", "quantitative.readout"],
 "data": [
  ["N#C[C@H](Nc1cc(Cl)cc(C2CC2)c1)c1ccc(-c2nn[nH]n2)cc1", "µM", 75.8],
  ["Cc1csc(COc2cccc([C@H](NC(=O)OCc3ccccc3)C(=O)Nc3cccc(CN)c3)c2)n1", "µM", 29.8],
  ["O=C(O)c1cc(Cl)c(Cl)cc1NS(=O)(=O)c1ccc(Oc2ccccc2Cl)cc1", "µM", 9.06],
  ["O=C(Nc1cc(Cl)cc(C(=O)Nc2ccnc(OC3CNC3)c2)c1)OCc1ccccc1", "µM", 66.1],
  ["Cc1cc(C(=O)Nc2cccc(CN)c2)c2cnn(-c3ccc(F)cc3)c2n1", "µM", 61.6]
]}

Proceeding to the next compound to report its IC50.
Query: Dear colleague, please send me the reported IC50 for N[C@H]1CCc2cc(NC(=O)c3cc(Cl)cc4[nH]ncc34)ccc21 when you can.
Result: 5.21
